# Test system: Pneumocystis carinii
# Protocol description: Treatment of Pneumocystis carinii pneumonia in Sprague-Dawley rats (extent of disease by histologic score)
# Type: in vivo, male Sprague-Dawley rats
# Condition: 5 mg/kg i.v. daily, 14 days; 1 = scattered cysts, <5% of lung involved
API: label(entry) gives Condition met if the entry's Extent of Disease by Histologic Score: number of animals with score 1 is strictly smaller than 3 animals; on equality or larger values it gives Condition not met.

> print(dat)
                                   compound     discrete.label
1  COc1cc(C(=N)N)ccc1OCCCCOc1ccc(C(=N)N)cc1OC [Example 11]  Condition not met
2  N=C(N)c1ccc(OCCCCCCOc2ccc(C(=N)N)cc2N)c(N)c1 [Example 22]      Condition met
3  N=C(N)c1ccc(OCCCCCOc2ccc(C(=N)N)cc2[N+](=O)[O-])c([N+](=O)[O-])c1 [Example 13]      Condition met
4  COc1cc(C(=N)N)ccc1OCCCOc1ccc(C(=N)N)cc1OC [Example 6]      Condition met

Take the compound N=C(N)c1ccc(NCCCNc2ccc(C(=N)N)cc2[N+](=O)[O-])c([N+](=O)[O-])c1 [Example 35] and say whether its Extent of Disease by Histologic Score: number of animals with score 1 is less than 3 animals. Condition met

---

# System: Pneumocystis carinii
# Protocol description: Treatment of Pneumocystis carinii pneumonia in Sprague-Dawley rats (extent of disease by histologic score)
# Type: in vivo, male Sprague-Dawley rats
# Condition: 5 mg/kg i.v. daily, 14 days; 2 = scattered cysts, 5-10% lung involved or small foci of infection
Could you please report measured Extent of Disease by Histologic Score: number of animals with score 2 for the items listed next?
Answers are plain numbers, in animals.

Use these answered entries as a reference point.
> print(dat)
                                   compound  readout.value
1  N=C(N)c1ccc(OCCCCCCOc2ccc(C(=N)N)cc2N)c(N)c1 [Example 22]              4
2  N=C(N)c1ccc(OCCCCCOc2ccc(C(=N)N)cc2[N+](=O)[O-])c([N+](=O)[O-])c1 [Example 13]              3
3  COc1cc(C2=NCCN2)ccc1OCCCCCOc1ccc(C2=NCCN2)cc1OC [Example 43]              1
4  COc1cc(C(=N)N)ccc1OCCCCCOc1ccc(C(=N)N)cc1OC [Example 15]              4
5  COc1cc(C(=N)N)ccc1OCCCOc1ccc(C(=N)N)cc1OC [Example 6]              0
6  COc1cc(C(=N)N)ccc1OCCCCOc1ccc(C(=N)N)cc1OC [Example 11]              1
7  N=C(N)c1ccc(NCCCNc2ccc(C(=N)N)cc2[N+](=O)[O-])c([N+](=O)[O-])c1 [Example 35]              0

Now consider a different compound.
Requested field: Extent of Disease by Histologic Score: number of animals with score 2. Item: N=C(N)c1ccc(NCCCCCNc2ccc(C(=N)N)cc2[N+](=O)[O-])c([N+](=O)[O-])c1 [Example 18] 0

---

Hi there, I'd appreciate the recorded Extent of Disease by Histologic Score: number of animals with score 3 for every entry that follows.
# Test system: Pneumocystis carinii
# Protocol description: Treatment of Pneumocystis carinii pneumonia in Sprague-Dawley rats (extent of disease by histologic score)
# Assay type: in vivo, male Sprague-Dawley rats
# Condition: 2.5 mg/kg i.v. daily, 14 days; 3 = scattered cysts, 10-50% of lung involved with some intense areas of infection
Answers are plain numbers, in animals.

Below are worked cases with known answers.
> print(dat)
                              record.smiles        assayed.target  readout.value
1  N=C(N)c1ccc(OCCCCCOc2ccc(C(=N)N)cc2Cl)c(Cl)c1  Pneumocystis carinii              4
2  CN1CCN=C1c1ccc(OCCCCCOc2ccc(C3=NCCN3C)cc2)cc1  Pneumocystis carinii              3
3  CN1CCN=C1c1ccc(OCCCCOc2ccc(C3=NCCN3C)cc2)cc1  Pneumocystis carinii              4
4  N=C(N)c1ccc(OCCCCOc2ccc(C(=N)N)cc2Cl)c(Cl)c1  Pneumocystis carinii              3
5  COc1cc(C2=NCCN2)ccc1OCCCOc1ccc(C2=NCCN2)cc1OC  Pneumocystis carinii              0

Recorded Extent of Disease by Histologic Score: number of animals with score 3 for `N=C(N)c1ccc(OCCCCOc2ccc(C(=N)N)cc2[N+](=O)[O-])c([N+](=O)[O-])c1` , please? 1

---

Assignment: determine reported Extent of disease by histologic score (combined): number of animals in scoring group 3 for the given molecules.
# Tested on: Pneumocystis carinii
# Protocol description: Treatment of Pneumocystis carinii pneumonia in Sprague-Dawley rats (extent of disease by histologic score)
# Format: in vivo, male Sprague-Dawley rats
# Condition: Table XII composite, tested at 2.5 mg/kg; 3 = scattered cysts, 10-50% of lung involved
Numbers only, in animals.

Recorded results for 3 molecules are shown here.
> print(dat)
                                   molecule        assayed.target  readout.value
1  N=C(N)c1ccc(OCCCCCOc2ccc(C(=N)N)cc2Cl)c(Cl)c1 [Example 25]  Pneumocystis carinii              4
2  CN1CCN=C1c1ccc(OCCCCCOc2ccc(C3=NCCN3C)cc2)cc1 [Example 42]  Pneumocystis carinii              3
3  COc1cc(C2=NCCN2)ccc1OCCCOc1ccc(C2=NCCN2)cc1OC [Example 44]  Pneumocystis carinii              0

Moving on to the next molecule.
Quick one: Extent of disease by histologic score (combined): number of animals in scoring group 3 of N=C(N)c1ccc(OCCCCOc2ccc(C(=N)N)cc2[N+](=O)[O-])c([N+](=O)[O-])c1 [Example 38] ? 1

---

# Test system: Pneumocystis carinii
# Protocol description: Treatment of Pneumocystis carinii pneumonia in Sprague-Dawley rats (extent of disease by histologic score)
# Format: in vivo, male Sprague-Dawley rats
# Condition: Table XII composite, 10 mg/kg; 2 = scattered cysts, 5-10% of lung involved
Please respond with reported Extent of disease by histologic score (combined): number of animals in scoring group 2 for every item in the list.
Put your answer as a value accompanied by its unit after it.

# example entries with known answers
> print(dat)
                              record.smiles  readout.value
1  N=C(N)c1ccc(NCCCNc2ccc(C(=N)N)cc2N)c(N)c1      2 animals
2  N=C(N)c1ccc(NCCCCNc2ccc(C(=N)N)cc2N)c(N)c1      3 animals

Please turn your attention to the following entry.
# Extent of disease by histologic score (combined): number of animals in scoring group 2 lookup, item `c1cc(C2=NCCN2)ccc1OCCCCCOc1ccc(C2=NCCN2)cc1` 0 animals

---

# System: Pneumocystis carinii
# Protocol description: Treatment of Pneumocystis carinii pneumonia in Sprague-Dawley rats (extent of disease by histologic score)
# Assay type: in vivo, male Sprague-Dawley rats
# Condition: Table XII composite, 10 mg/kg; 2 = scattered cysts, 5-10% of lung involved
Give Extent of disease by histologic score (combined): number of animals in scoring group 2 for every item shown.
Numbers only, in animals.

Recorded Extent of disease by histologic score (combined): number of animals in scoring group 2, per entry:
> print(dat)
                                   molecule        assayed.target  readout.value
1  N=C(N)c1cccc(OCCCCOc2cccc(C(=N)N)c2)c1 [Example 27]  Pneumocystis carinii              1
2  N=C(N)c1ccc(NCCCCNc2ccc(C(=N)N)cc2)cc1 [Example 8]  Pneumocystis carinii              0
3  N=C(N)c1ccc(OCCCCCCOc2ccc(C(=N)N)cc2)cc1 [Example 20, hexamidine, reference compound]  Pneumocystis carinii              1
4  N=C(N)c1ccc(OCCCCCOc2ccc(C(=N)N)cc2N)c(N)c1 [Example 14]  Pneumocystis carinii              1

// below: Extent of disease by histologic score (combined): number of animals in scoring group 2 requested for another molecule
So what's the measured Extent of disease by histologic score (combined): number of animals in scoring group 2 for this one? N=C(N)c1ccc(NCCCCCCNc2ccc(C(=N)N)cc2N)c(N)c1 [Example 23] 2

---

# System: Pneumocystis carinii
# Protocol description: Treatment of Pneumocystis carinii pneumonia in Sprague-Dawley rats (extent of disease by histologic score)
# Type: in vivo, male Sprague-Dawley rats
# Condition: Table XII composite, 10 mg/kg; 1 = scattered cysts, <5% of lung involved
Readout: Extent of disease by histologic score (combined): number of animals in scoring group 1
// unit must come after the numeric part

Examples with answers:
> print(dat)
                                   molecule  readout.value
1  N=C(N)c1ccc(OCCCCOc2ccc(C(=N)N)cc2N)c(N)c1 [Example 10]      5 animals
2  N=C(N)c1ccc(NCCCCNc2ccc(C(=N)N)cc2N)c(N)c1 [Example 37]      4 animals
3  N=C(N)c1cccc(OCCCCOc2cccc(C(=N)N)c2)c1 [Example 27]      1 animals

List the reported Extent of disease by histologic score (combined): number of animals in scoring group 1 of each molecule below.
1. N=C(N)c1ccc(OCCOc2ccc(C(=N)N)cc2N)c(N)c1 [Example 3]
2. N=C(N)c1cccc(OCCCCCOc2cccc(C(=N)N)c2)c1 [Example 28]
3. N=C(N)c1cccc(OCCCCCCOc2cccc(C(=N)N)c2)c1 [Example 29]

1: 4 animals; 2: 3 animals; 3: 4 animals

Dear reader, for each entry below, please note its Extent of disease by histologic score (combined): number of animals in scoring group 1.
1. N=C(N)c1ccc(NCCCNc2ccc(C(=N)N)cc2N)c(N)c1 [Example 36]
2. N=C(N)c1ccc(OCCCOc2ccc(C(=N)N)cc2)cc1 [Example 4]
3. N=C(N)c1ccc(OCCCCCCOc2ccc(C(=N)N)cc2)cc1 [Example 20, hexamidine, reference compound]
4. N=C(N)c1ccc(NCCCCNc2ccc(C(=N)N)cc2)cc1 [Example 8]
5. N=C(N)c1ccc(NCCCCCNc2ccc(C(=N)N)cc2)cc1 [Example 17]
6. c1cc(C2=NCCN2)ccc1OCCCCCOc1ccc(C2=NCCN2)cc1 [Example 30]
7. N=C(N)c1cccc(OCCCOc2cccc(C(=N)N)c2)c1 [Example 26]

["4 animals", "4 animals", "3 animals", "1 animals", "2 animals", "3 animals", "1 animals"]
